protocol text: Biodistribution of 177Lu-labeled αMSH analogues in mice bearing SK-MEL-1 human melanoma
condition context: male, NRG (NOD.Cg-Rag1tm1Mom Il2rgtm1Wjl/SzJ), mouse, thyroid, total radioactivity
parameter measured: tissue uptake at 24 h

[[record]]
compound = "CCCC[C@H](NC(=O)CN1CCC(NC(=O)[C@H](CCCCNC(=O)CN2CCN(CC(=O)O)CCN(CC(=O)O)CCN(CC(=O)O)CC2)NC(=O)CNC(=O)CCCc2ccc(I)cc2)CC1)C(=O)N[C@H]1CC(=O)NCCCC[C@@H](C(N)=O)N(C)C(=O)[C@H](Cc2c[nH]c3ccccc23)NC(=O)[C@H](CCCNC(=N)N)N(C)C(=O)[C@@H](Cc2ccccc2)NC(=O)[C@H](Cc2c[nH]cn2)NC1=O [^177Lu-labeled CCZ01148, metal not drawn]"
value_measured = "11.6 %ID/g"

[[record]]
compound = "CCCC[C@H](NC(=O)CN1CCC(NC(=O)[C@H](CCCCNC(=O)CN2CCN(CC(=O)O)CCN(CC(=O)O)CCN(CC(=O)O)CC2)NC(=O)[C@H](CCC(=O)O)NC(=O)CCCc2ccc(I)cc2)CC1)C(=O)N[C@H]1CC(=O)NCCCC[C@@H](C(N)=O)N(C)C(=O)[C@H](Cc2c[nH]c3ccccc23)NC(=O)[C@H](CCCNC(=N)N)N(C)C(=O)[C@@H](Cc2ccccc2)NC(=O)[C@H](Cc2c[nH]cn2)NC1=O [^177Lu-labeled CCZ01118, metal not drawn]"
value_measured = "2.49 %ID/g"

[[record]]
compound = "CCCC[C@H](NC(=O)CN1CCC(NC(=O)[C@H](CCCCNC(=O)CN2CCN(CC(=O)O)CCN(CC(=O)O)CCN(CC(=O)O)CC2)NC(=O)CNC(=O)CCCc2ccc(-c3ccc(C)cc3)cc2)CC1)C(=O)N[C@H]1CC(=O)NCCCC[C@@H](C(N)=O)N(C)C(=O)[C@H](Cc2c[nH]c3ccccc23)NC(=O)[C@H](CCCNC(=N)N)N(C)C(=O)[C@@H](Cc2ccccc2)NC(=O)[C@H](Cc2c[nH]cn2)NC1=O [^177Lu-labeled CCZ01158, metal not drawn]"
value_measured = "5.04 %ID/g"

